Target: Thromboxane Synthetase (Homo sapiens, UniProt P24557)
Construct: Human platelet-rich plasma preparation; endogenous in cells
Sequence (P24557 whole entry): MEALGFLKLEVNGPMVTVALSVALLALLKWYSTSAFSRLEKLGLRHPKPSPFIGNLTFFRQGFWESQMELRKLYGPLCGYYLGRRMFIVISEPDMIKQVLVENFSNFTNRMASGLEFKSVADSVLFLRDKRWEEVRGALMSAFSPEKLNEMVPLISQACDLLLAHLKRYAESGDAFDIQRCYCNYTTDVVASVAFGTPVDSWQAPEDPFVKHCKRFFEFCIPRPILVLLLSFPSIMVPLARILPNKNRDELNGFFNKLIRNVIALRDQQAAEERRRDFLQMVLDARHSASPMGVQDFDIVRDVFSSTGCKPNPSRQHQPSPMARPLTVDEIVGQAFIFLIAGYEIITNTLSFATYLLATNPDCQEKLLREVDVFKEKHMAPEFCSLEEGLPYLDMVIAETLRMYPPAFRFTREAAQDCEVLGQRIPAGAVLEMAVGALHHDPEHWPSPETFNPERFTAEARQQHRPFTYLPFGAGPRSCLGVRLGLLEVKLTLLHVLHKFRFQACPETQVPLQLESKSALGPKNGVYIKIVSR
Test: Inhibition of ADP-induced human platelet aggregation (PRP + pig aortic microsomes) as measure of thromboxane synthetase inhibition
Details: platelet aggregation inhibition; inducer ADP 5×10^-6 M; solvent water
Measured parameter: pIC50
Remember the convention: pIC50 equals -log10 of concentration in molar.

Quick one: pIC50 of O=C(O)c1ccc2ccc(Cc3cccnc3)cc2c1 [reference compound] ?
4.68
